Test system: L1210 leukemia ip in BDF1 mice, survival T/C
Run Description: NCI In Vivo Anticancer Drug Screen. Data for tumor model L1210 Leukemia (intraperitoneal) in B6D2F1 (BDF1) mice
Condition Details: endpoint: mean survival time; dose: 400.0 mg/kg/injection; schedule: Q04DX003 (ip); vehicle: Klucel (hydroxypropylcellulose) (HPC); higher = longer survival
Inconclusive results and toxic doses are left out.
Result Type: T/C

Sample answers from the record:
CSc1n[nH]c(/N=N/N(C)C)c1C(N)=O: 111 % of control
CCCCCCCCCCCCCCCC(=O)NNC(C)C: 89 % of control
CON=C(c1ccc(N(C)C)cc1)c1ccc(N(C)C)cc1: 92 % of control
CCCCCCC/C=C/c1c(C)[nH]c2ccccc2c1=O: 89 % of control

Per the reported L1210 leukemia ip in BDF1 mice, survival T/C data, `Oc1c(Cl)c2nc3ccccc3nc2c2ccccc12` has T/C of 98 % of control

Per the reported L1210 leukemia ip in BDF1 mice, survival T/C data, O=C1OC(c2ccccc2)(C2(c3ccccc3)C=C(c3ccccc3)C(=O)O2)C=C1c1ccccc1 (stereo not drawn) has T/C of 91 % of control

Per the reported L1210 leukemia ip in BDF1 mice, survival T/C data, Cc1nc(N)nc2c1CCC(Nc1ccccc1)S2 (stereo not drawn) has T/C of 92 % of control

Per the reported L1210 leukemia ip in BDF1 mice, survival T/C data, NC(c1ccccc1)C1C(c2ccccc2)N1C1CCCCC1 (stereo not drawn) has T/C of 98 % of control

###

The entries below come with measured T/C values attached.
System: L1210 leukemia ip in BDF1 mice, survival T/C
Run Description: NCI In Vivo Anticancer Drug Screen. Data for tumor model L1210 Leukemia (intraperitoneal) in B6D2F1 (BDF1) mice
Condition Details: endpoint: mean survival time; dose: 150.0 mg/kg/injection; schedule: Q01DX001 (ip); vehicle: saline; higher = longer survival
Toxic doses and inconclusive results are not listed.

CCOc1ccc2c(ccc(/C=C\c3ccc(O)c4ccccc34)[n+]2C)c1: 101 % of control

// sample CN1CC2CCCCC1C2OC(=O)C(c1ccccc1)c1ccccc1 (configuration not stated) , its T/C was 101 % of control

// sample `COc1ccc(Nc2cccc(Cl)c2)c(C(=O)O)c1` , its T/C was 90 % of control

// sample C/C=C(\C)C1(CC)C(=O)NC(=O)N(C)C1=O (configuration not stated) , its T/C was 97 % of control

// sample `Cc1ncc(CCl)c2c1OC(C)(C)OC2` , its T/C was 101 % of control

// sample `O=c1[nH]nc(-c2ccc(Cl)c(Cl)c2)s1` , its T/C was 92 % of control

// sample `Cc1cc(=O)cc(C(=O)O)o1` , its T/C was 107 % of control

###

The entries below come with measured T/C values attached.
Tested on: L1210 leukemia ip in BDF1 mice, survival T/C
Run Description: NCI In Vivo Anticancer Drug Screen. Data for tumor model L1210 Leukemia (intraperitoneal) in B6D2F1 (BDF1) mice
Condition Details: endpoint: mean survival time; dose: 200.0 mg/kg/injection; schedule: Q04DX003 (ip); vehicle: gum acacia; higher = longer survival
Toxic doses and inconclusive results are not listed.

Sample answers from the record:
COc1cccc(C2NC(=O)N3C(c4cccc(OC)c4)NC(=O)N23)c1 (stereo unspecified): 95 % of control
C=CCc1cc2c(C)cc(=O)oc2c(C)c1OC(C)=O: 103 % of control
Nc1ccc2ncccc2c1 (tested in a mixture with another compound): 91 % of control
COc1ccc(CCC(=O)O)cc1: 95 % of control
CC(C)(C)C1CCC(C(=O)O)CC1 (stereo unspecified): 106 % of control

Then there is this molecule:
// sample `COc1ccc(C(CCl)(CCl)c2ccc(OC)cc2)cc1` , its T/C was 101 % of control

###

Test system: L1210 leukemia ip in BDF1 mice, survival T/C
Run Description: NCI In Vivo Anticancer Drug Screen. Data for tumor model L1210 Leukemia (intraperitoneal) in B6D2F1 (BDF1) mice
Condition Details: endpoint: mean survival time; dose: 400.0 mg/kg/injection; schedule: Q01DX009 (ip); vehicle: other; higher = longer survival
Toxic doses and inconclusive results are not listed.
The entries below come with measured T/C values attached.

Sample answers from the record:
N#CCCSP(=S)(Oc1ccccc1)Oc1ccccc1: 94 % of control
O=C(NCC1CC1)Nc1cccc2ccccc12: 92 % of control

// sample Cc1[nH]c2ccccc2c1C1Cc2ccccc2N1 (stereo not given) , its T/C was 107 % of control

// sample COC1CN(C)C(=Nc2cccc3ccccc23)S1 (stereo not given) , its T/C was 97 % of control

// sample `C=CCCCCCCCCC(=O)O` , its T/C was 89 % of control

###

The entries below come with measured T/C values attached.
System: L1210 leukemia ip in BDF1 mice, survival T/C
Run Description: NCI In Vivo Anticancer Drug Screen. Data for tumor model L1210 Leukemia (intraperitoneal) in B6D2F1 (BDF1) mice
Condition Details: endpoint: mean survival time; dose: 37.5 mg/kg/injection; schedule: Q04DX003 (ip); vehicle: saline with Tween-80; higher = longer survival
Toxic doses and inconclusive results are not listed.

CS(=O)(=O)OCCN(CCOS(C)(=O)=O)c1ccc(C=Nc2ccc(C(=O)O)c(O)c2)cc1: 113 % of control
Cc1cccc(N2CCN(c3ccncc3N)CC2C)c1 (centres undefined): 94 % of control
CCOc1nn2nnnc2c2ccccc12: 97 % of control

Then there is this compound:
// sample CCC(=O)NC1CC(OC2CC(O)(C(C)=O)Cc3c(O)c4c(c(O)c32)C(=O)c2c(OC)cccc2C4=O)OC(C)C1O (centres undefined) , its T/C was 105 % of control

###

Test system: L1210 leukemia ip in BDF1 mice, survival T/C
Run Description: NCI In Vivo Anticancer Drug Screen. Data for tumor model L1210 Leukemia (intraperitoneal) in B6D2F1 (BDF1) mice
Condition Details: endpoint: mean survival time; dose: 25.0 mg/kg/injection; schedule: Q01DX009 (ip); vehicle: saline; higher = longer survival
Toxic doses and inconclusive results are not listed.
The entries below come with measured T/C values attached.

Per the reported L1210 leukemia ip in BDF1 mice, survival T/C data, `Cc1ccc(NC(=O)OCCN(C)C)cc1NC(=O)OCCN(C)C` has T/C of 98 % of control

Per the reported L1210 leukemia ip in BDF1 mice, survival T/C data, `NC(=O)CC[n+]1ccccc1` has T/C of 93 % of control

Per the reported L1210 leukemia ip in BDF1 mice, survival T/C data, `CN1Cc2cc3cc(c2O)C[N+](C)(C)Cc2c(Cl)c(c(Cl)c(c2Cl)C[N+](C)(C)C3)C1` has T/C of 98 % of control

Per the reported L1210 leukemia ip in BDF1 mice, survival T/C data, `CCC1(CC)COC(=O)NC1=O` has T/C of 97 % of control

Per the reported L1210 leukemia ip in BDF1 mice, survival T/C data, CC(c1c[nH]c2ccccc12)N1CCCCC1 (stereo not given) has T/C of 107 % of control

###

The entries below come with measured T/C values attached.
System: L1210 leukemia ip in BDF1 mice, survival T/C
Run Description: NCI In Vivo Anticancer Drug Screen. Data for tumor model L1210 Leukemia (intraperitoneal) in B6D2F1 (BDF1) mice
Condition Details: endpoint: mean survival time; dose: 400.0 mg/kg/injection; schedule: Q01DX009 (ip); vehicle: saline; higher = longer survival
Toxic doses and inconclusive results are not listed.

// sample CCOc1ccn(C2CCOC2=O)c(=O)n1 (configuration not stated) , its T/C was 100 % of control

// sample CCCC(=O)Nc1ncnc2c1ncn2C1OC2COP(=O)(O)OC2C1OC(=O)CCC (configuration not stated) , its T/C was 104 % of control

// sample `CCC(=O)OC/C=C/c1ccccc1` , its T/C was 95 % of control

// sample `O=C1CSCC(=O)N1` , its T/C was 103 % of control

// sample C/C=C/C(=O)C12CCCCCCCCCC(=C1N1CCCCC1)C(=O)CC2C (configuration not stated) , its T/C was 98 % of control

// sample `CCOC(=O)CCC(C)=O` , its T/C was 96 % of control

// sample `C[S+](C)CCCN` , its T/C was 106 % of control

// sample `COc1cccc(OC)c1OC(=O)Nc1ccccc1C(F)(F)F` , its T/C was 100 % of control

// sample CNCC(O)c1ccc(O)cc1 (configuration not stated) , its T/C was 100 % of control

// sample `CC(C)(CNc1ccc(C(=O)O)cc1)[N+](=O)[O-]` , its T/C was 87 % of control

// sample `CCOP(=O)(CC(=O)OC)OCC` , its T/C was 88 % of control

// sample CC([NH-])c1ccccc1.[Cl][Pt]([Cl])[Cl] (configuration not stated) , its T/C was 87 % of control
